The reported measurements were obtained from ChEMBL document CHEMBL3507680.

Test: Human HepG2 cell viability assay in 384 well format
Type: toxicity, cell-based
Design: dose 125 nL, time 70.5 hour; concentration not given beside the values
Settings: HepG2 cells, read-out: Inhibition
Measured cytotoxicity at 70.5 h accompanies every entry in the list below.

| compound | cytotoxicity at 70.5 h |
| --- | --- |
| Fc1cnc(N2CC[C@@H](N3CCOCC3)[C@@H]2Cc2ccccc2)nc1 | 8.96% |
| CS(=O)(=O)CCn1ccc(NC(=O)CCc2cccc(F)c2)n1 | -3.41% |
| CC(=O)N1[C@H](CN(C)C)C[C@@H]2CN(C(=O)c3cccn3C)CC[C@@H]21 | -11.1% |
| NC(=O)N1CCCC(C(=O)NCCOc2ccc(F)cc2F)C1 (stereo unspecified) | 0.645% |
| CS(=O)(=O)c1ccc(OCCNCc2cccc(O)c2)cc1 | -0.254% |
| CO[C@@H]1CCN(Cc2ccoc2)[C@H]1Cc1ccccc1 | -5.28% |
| COc1ccc(CNC(=O)N2CCC(Cc3cnn(C)c3)C2)cc1C (stereo unspecified) | -3.46% |
| Cc1ccc(CN2CCc3ncnc(C4CCOC4)c3CC2)s1 (stereo unspecified) | 2.16% |
| CN1CCN(Cc2ccccc2CNC(=O)c2cc(Br)ccc2F)CC1 | 10.8% |
| CCN(Cc1csc(CS(C)(=O)=O)n1)c1cccc(F)c1 | -7.29% |
| COCCN1C2(CCN(CC3CC3)C2)c2ccccc2S1(=O)=O (stereo unspecified) | 4.8% |

====

Test: Human HepG2 cell viability assay in 384 well format
Assay type: toxicity, cell-based
Set-up: dose 125 nL, time 70.5 hour; concentration not given beside the values
Settings: HepG2 cells, read-out: Inhibition

| molecule | cytotoxicity at 70.5 h (%) |
| --- | --- |
| Cc1ncsc1CN1C[C@@H]2COC[C@]2(C(=O)NCC2CC2)C1 | -3.67 |
| N#CCc1ccc(OCC(=O)NS(=O)(=O)c2cccs2)cc1 | 1.77 |
| Cc1ccc2cccc(S(=O)(=O)N(C)C3CCCN(C)C3)c2n1 (configuration not stated) | 0.353 |
| CN(C)[C@H]1CCCCN(Cc2cnc(NCc3ccccc3)nc2)C1 | -1.39 |
| CCN(C)C(=O)c1ccc(N2CCC(Oc3cccc(F)c3)CC2)nc1 | -4.75 |
| Cn1cc(NC(=O)C2CC(=O)N(c3n[nH]c4cccc(F)c34)C2)cn1 (configuration not stated) | -26.5 |
| COC(=O)CN1CCCN(C(=O)CCOc2cccc(C)c2C)CC1 | -5.13 |
| CSC(C)(C)CNC(=O)NC1CCSCC1 | -6.55 |
| Cc1cc(C)n(CCNCc2cc(-c3ccc(F)cc3)c[nH]c2=O)n1 | 1.4 |
| Oc1cc(C2CCNCC2)nc(-c2ccsc2)n1 | -4.35 |
| O=C(Nc1ccc(-c2csnn2)cc1)NC(CCO)C1CC1 (configuration not stated) | 18 |
| O=c1ncn(-c2cccc(F)c2)c2ncccc12 | -0.419 |

====

Measured cytotoxicity at 70.5 h accompanies every entry in the list below.
Test: Human HepG2 cell viability assay in 384 well format
Type: toxicity, cell-based
Design: dose 125 nL, time 70.5 hour; concentration not given beside the values
Conditions: HepG2 cells, read-out: Inhibition

| molecule | cytotoxicity at 70.5 h / % |
| --- | --- |
| Cc1nc(C)c(C(=O)N2Cc3ccccc3OCC2Cn2ccnc2)s1 (stereo not given) | 2.25 |
| O=C1CC(NS(=O)(=O)N2CCOCC2)CN1CCc1ccccc1 (stereo not given) | -3.7 |
| CN1C(Cn2cccn2)C[C@@H]2CN(Cc3ccccn3)CC[C@@H]21 (stereo not given in full) | -10.5 |
| CC(C)NC(=O)[C@@H]1C[C@@H]2CCN(Cc3ccoc3)C[C@H]2O1 | 0.151 |
| Cc1ncsc1C(=O)NCc1cc2n(n1)CCN(C(=O)N(C)C)C2 | -11.4 |

====

Measured cytotoxicity at 70.5 h accompanies every entry in the list below.
Test: Human HepG2 cell viability assay in 384 well format
Type: toxicity, cell-based
Set-up: dose 125 nL, time 70.5 hour; concentration not given beside the values
Settings: HepG2 cells, read-out: Inhibition

| compound | cytotoxicity at 70.5 h [%] |
| --- | --- |
| CCC(=O)N1CCC2(CC1)CN(C(C)=O)c1ccc(C)cc12 | -9.39 |
| CC(C)N1CCO[C@H]2CN(C(=O)Cc3ccsc3)C[C@H]21 | -2.31 |
| O=C(c1ccoc1)N1CCC2(CCC(=O)N2Cc2ccncc2)CC1 | 5.56 |
| CCCS(=O)(=O)N1Cc2nccn2CC(CN2CCCC2)C1 (stereo not drawn) | -4.76 |
| Cc1ccc(N2C[C@H]3OCC[C@H]3[C@H](C(=O)NC3CCCC3)C2)nn1 | -12.6 |
| COc1cc(N2C[C@H]3OCC[C@H]3[C@H](C(=O)NC3CC3)C2)ncn1 | -4.39 |
| Cn1cnc(S(=O)(=O)N2CCCC2c2cnccn2)c1 (stereo not drawn) | -9.6 |
| CSc1ccc(C(=O)N2CC(=O)N(Cc3cccs3)CC(O)C2)cc1 (stereo not drawn) | -6.27 |
| Cn1cc(NC(=O)c2cccc3cccnc23)ccc1=O | -18.3 |
| CC(C)N(C)Cc1n[nH]c2c1CCN(C(=O)c1ccc[nH]1)C2 | 21 |
| Cc1nc2sccn2c1C(=O)N1CCc2[nH]cnc2C1 | 10.2 |
| CCNS(=O)(=O)c1ccc(C)c(C(=O)N(CCC#N)Cc2ccco2)c1 | 19.1 |
| O[C@@H]1C[C@@](CNCc2cccc(Cl)c2)(COc2cnccn2)C[C@@H]1O | -12 |
| NC(=O)C1CCN(C(=O)c2cc(-n3cnnn3)ccc2Cl)CC1 | -14.1 |
| c1cc2c(cc1-c1noc3c1CN(C1CCSC1)CC3)OCO2 (stereo not drawn) | -12.7 |
| Cc1nc(C2CCCN(C(=O)c3csc(C)n3)C2)no1 (stereo not drawn) | 4.29 |
| O=c1cc(CNS(=O)(=O)C2CC2)nc2n1CCCN(CC1CC1)C2 | -5.1 |
| CNc1[nH]nc(N)c1C(=O)Nc1ccccc1 | 2.68 |
| Cn1cc(CN2CCC[C@]3(C[C@@H](Oc4ncccc4F)CO3)C2)cn1 | -6.45 |
| CO[C@@H]1CC[C@@H](NC(=O)c2ccc(OCCN3CCCC3)cc2)[C@H]1O | -4.63 |
| O=C(NCCc1noc(-c2ccccn2)n1)NCC1CCCC1 | -4.99 |
| O=C(NC(CN1CCCC1)c1ccccc1)c1c(O)cc(F)cc1F (stereo not drawn) | -1.92 |
| N#Cc1ccc(OCCCN2CCOC(Cn3cncn3)C2)cc1 (stereo not drawn) | 32.1 |

====

Assay: Human HepG2 cell viability assay in 384 well format
Type: toxicity, cell-based
Set-up: dose 125 nL, time 70.5 hour; concentration not given beside the values
Conditions: HepG2 cells, read-out: Inhibition

| compound | cytotoxicity at 70.5 h / % |
| --- | --- |
| Cc1nc(N2CCCC(N3CCCC3)C2)c2cnn(C)c2n1 (stereo unspecified) | -5.42 |
| c1cnnc(N2CCCC2CNCc2nc(C3CC3)no2)c1 (stereo unspecified) | -11.8 |
| Cc1nc(N2CCCN(c3ncccn3)CC2)c2cnn(C)c2n1 | -3.77 |
| CCOCC(=O)N1CCC[C@]2(C[C@@H](OCc3ccncc3)CO2)C1 | -7.17 |
| Cc1ccc(C(=O)N2CCN3C[C@H](Oc4cccc(F)c4)C[C@H]3C2)cn1 | -2.95 |
| CNC(=O)C(CCSC)NC(=O)c1ccc2ccccc2n1 (stereo unspecified) | -11 |

====

Measured cytotoxicity at 70.5 h accompanies every entry in the list below.
Assay: Human HepG2 cell viability assay in 384 well format
Assay type: toxicity, cell-based
Design: dose 125 nL, time 70.5 hour; concentration not given beside the values
Conditions: HepG2 cells, read-out: Inhibition

| compound | uom | cytotoxicity at 70.5 h |
| --- | --- | --- |
| COCC(=O)Nc1ccnn1-c1ccc(Cl)cc1 | % | 3.64 |
| CCN1CCCC1(C)c1nc(C)cc(N)n1 (stereo not given) | % | -10.7 |
| CC(C(=O)Nc1ccc(N2CCOCC2)nc1)n1cncn1 (stereo not given) | % | 23.7 |
| Cc1ccc(CN(CCCn2ccnc2)Cc2c(F)cccc2F)s1 | % | 24 |
| COc1ccc(S(=O)(=O)N2Cc3c(CN(C)C)nn(C)c3C2)cc1 | % | -3.13 |
| CCc1cc(NC2CCS(=O)(=O)C2)nc(N2CCCCC2)n1 (stereo not given) | % | -3.25 |
| Cc1cc(N2CCC(N(C)C(=O)c3ccc(C#N)cc3)CC2)nc(C)n1 | % | -7.65 |
| c1cc2nccc(CC3CCCN(Cc4ncc[nH]4)CC3)c2cn1 (stereo not given) | % | -7.89 |
| CSCc1cccc(S(=O)(=O)N2CCCCCC2)c1 | % | -4.01 |
| O=C(c1ccco1)N1CCC2(CC1)CCN(c1ncccn1)CC2 | % | 4.21 |
| CC(O)C1CCN(Cc2nccn2CC(F)(F)F)CC1 (stereo not given) | % | -7.97 |
| Cn1cc(NC(=O)N2CCCC2c2ccccn2)ccc1=O (stereo not given) | % | -5.4 |
| Cc1ccc(CN(C)Cc2cnc(N3CCOCC3)s2)o1 | % | 22.4 |
| COCCCN1CC2(CCCCN2C(=O)c2ccsc2)CC1=O (stereo not given) | % | 8.24 |
| CCN(CC1CCOC1)C(=O)c1ccn(-c2cc(C)ccc2OC)n1 (stereo not given) | % | -2.72 |
| CCN1CCN(Cc2nc(CC(C)C)no2)CC1 | % | 19.9 |
| CC(=O)N(Cc1ncc(C)o1)C1CCN(Cc2noc(C)n2)C1 (stereo not given) | % | -5.31 |
| CC(C)c1noc(CCC(=O)NC(C)c2ccccn2)n1 (stereo not given) | % | -1.62 |
| CCc1nc2ccccc2n1C(CC)C(=O)N(C)Cc1nc(C)c[nH]1 (stereo not given) | % | 21.7 |
| Cc1cccc(CN2CCCC(O)(CNCCN3CCCCC3)C2=O)c1 (stereo not given) | % | 2.73 |
| COc1ccc(C2=NOC(CC#N)C2)cc1 (stereo not given) | % | -1.51 |
| COc1cc(CNCC(O)c2ccc(C)cc2)cc2c1OCCO2 (stereo not given) | % | 4.82 |
| O=C(NC1CCCC1)c1cc(C2CCCNC2)n[nH]1 (stereo not given) | % | -3.17 |
| Cc1cc(CN2CCN(Cc3cc(C#N)ccc3F)CC2)no1 | % | 0.144 |
| Cc1ccc(Cl)c2ccc(NC(CO)CO)nc12 | % | 0.998 |
